# Ki values compiled below
molecular target: human GPR39 receptor (Homo sapiens, UniProt O43194); construct: PC3 Cells, Expressing the Endogenous Human GPR39 Receptor; endogenous in cells; assay: Measurement of intracellular calcium response in PC3 cells (FLIPR), antagonism of the C3 agonist response; conditions: functional pKi (modified Cheng-Prusoff), inhibition of the C3 (TC-G 1008) response at EC90, 30 μM ZnCl2, read-out: fpKi activity
Counter-ions that a name gives are not always drawn.

Task item: So what does the record say about Ki for O=C(Nc1ccc(C(=O)N2CCS(=O)(=O)CC2)c(-n2cc(C(F)(F)F)cn2)c1)C1CC1 ?
Reply: 316 to 1000 nM

Task item: # Ki lookup, item CN1CCN(C(=O)c2ccc(NC(=O)C3CC3)cc2N2CCC3(CCC3)C2)C(c2ccccc2)C1 (racemic) [Example 66c]
Reply: ≤ 50.1 nM

Task item: Could you share which Ki value was measured for O=C(Nc1ccc(C(=O)N2CCN(Cc3ccccc3Cl)CC2)c(N2CCCCCC2)c1)C1CC1 ?
Reply: 316 to 1000 nM

***
Task item: Need Ki, item CC1CC(C)CN(c2cc(NC(=O)C3CC3)ccc2C(=O)N2CCN(C)CC2c2ccccc2)C1 (single isomer, unassigned) [Example 68d]
Reply: 63.1 to 251 nM

Task item: Item CN1CCn2c(cnc2-c2ccc(NC(=O)C3CC3)cc2N2CCCC2)C1 has what recorded Ki?
Reply: 316 to 1000 nM

Task item: Please look up its Ki: CCCN1CCN(C(=O)c2ccc(NC(=O)C3CC3)cc2N2CCCC3(COC3)C2)CC1
Reply: 1260 to 6310 nM

Task item: Recorded Ki for CN1CCN(C(=O)c2ccc(NC(=O)C3CC3)cc2N2CCCC2)C(c2ccccc2)C1 (single isomer, unassigned) [Example 62d, hydrochloride] , please?
Reply: 63.1 to 251 nM

---

Biological target: human GPR39 receptor (Homo sapiens)
Construct: PC3 Cells, Expressing the Endogenous Human GPR39 Receptor; endogenous in cells
Sequence (O43194 1-453): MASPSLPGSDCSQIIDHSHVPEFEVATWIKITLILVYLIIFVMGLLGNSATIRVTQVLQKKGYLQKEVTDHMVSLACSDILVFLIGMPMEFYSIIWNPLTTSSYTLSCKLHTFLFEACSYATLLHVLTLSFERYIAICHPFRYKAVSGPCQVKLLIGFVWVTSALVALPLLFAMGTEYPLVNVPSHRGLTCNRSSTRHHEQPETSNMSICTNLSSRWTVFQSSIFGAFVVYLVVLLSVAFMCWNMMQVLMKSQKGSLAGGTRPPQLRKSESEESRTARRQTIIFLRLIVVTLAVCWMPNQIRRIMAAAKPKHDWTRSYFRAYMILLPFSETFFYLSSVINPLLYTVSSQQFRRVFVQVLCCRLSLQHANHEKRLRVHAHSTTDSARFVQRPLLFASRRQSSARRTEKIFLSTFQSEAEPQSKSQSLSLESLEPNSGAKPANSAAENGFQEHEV
Assay: Measurement of intracellular calcium response in PC3 cells (FLIPR), antagonism of the C3 agonist response
Details: functional pKi (modified Cheng-Prusoff), inhibition of the C3 (TC-G 1008) response at EC90, 30 μM ZnCl2, read-out: fpKi activity
pKi: −log10 of the molar value.
MEASURED_PROPERTY: pKi

Check out these entries, answers already filled in.
Task item: # get_value(readout='pKi', item= CCCN1CCN(C(=O)c2ccc(NC(=O)C3CC3)cc2N2CCCCCC2)CC1 )
Reply: 6.60 to 7.20

Task item: Param item = CN1CCN(C(=O)c2ccc(NC(=O)C3CC3)cc2N2CCCC2)C(c2cccc(F)c2)C1 (single isomer, unassigned) [Example 88b] ; retrieve measured pKi.
Reply: 5.20 to 5.90

Task item: Give the measured pKi of CC1CCN(c2cc(NC(=O)C3CC3)ccc2C(=O)N2CCC(C(F)(F)F)CC2)C1 (single isomer, unassigned) [Example 63a] .
Reply: ≥ 7.30

Continuing:
Task item: Entry CCCN1CCN(C(=O)c2ccc(NC(=O)C3CC3)cc2N2CCC(C)CC2)CC1 : reported pKi = ?
Reply: 6.60 to 7.20

---

target: human GPR39 receptor (Homo sapiens, UniProt O43194); construct: PC3 Cells, Expressing the Endogenous Human GPR39 Receptor; endogenous in cells; experiment: Measurement of intracellular calcium response in PC3 cells (FLIPR), antagonism of the C3 agonist response; conditions: functional pKi (modified Cheng-Prusoff), inhibition of the C3 (TC-G 1008) response at EC90, 30 μM ZnCl2, read-out: fpKi activity
MEASURED_PROPERTY: Ki

Example cases with answers are listed next.
Task item: What value of measured Ki is listed for CN1CCN(C(=O)c2ccc(NC(=O)C3CC3)cc2N2CCCC2)C(c2ccc(Cl)cc2)C1 (racemic) [Example 176] ?
Reply: 316 to 1000 nM

Task item: What does the data say about its Ki? Entry: CC1CCN(c2cc(NC(=O)C3CC3)ccc2C(=O)N2CCN(C)CC2c2ccccc2)C1 (single isomer, unassigned) [Example 64a]
Reply: ≤ 50.1 nM

Task item: // Ki lookup, key: CN1CCN(C(=O)c2ccc(NC(=O)C3CC3)cc2N2CCCCCC2)CC1 [Example 49]
Reply: 63.1 to 251 nM

Task item: What value of measured Ki is listed for CN1CCN(C(=O)c2ccc(NC(=O)C3CC3)cc2N2CCCC2)C(c2ccccc2F)C1 (racemic) [Example 84c] ?
Reply: 63.1 to 251 nM

Task item: Look up Ki for this compound: CCCN1CCN(C(=O)c2ccc(NC(=O)C3CC3)cc2N2C[C@@H](C)C[C@H](C)C2)CC1 (relative stereo) [Example 14b]
Reply: 63.1 to 251 nM

Task item: Consider the compound O=C(Nc1ccc(C(=O)N2CCS(=O)(=O)CC2)c(N2CCC(F)(F)C2)c1)C1CC1 [Example 184] and give its measured Ki.
Reply: 63.1 to 251 nM

Task item: Which Ki is reported for this compound? O=C(Nc1ccc(C(=O)N2CCS(=O)(=O)CC2)c(N2CCCC(C(F)(F)F)C2)c1)C1CC1 (single isomer, unassigned) [Example 185b]
Reply: ≤ 50.1 nM

Task item: Bench note: what Ki did O=C(Nc1ccc(C(=O)N2CCS(=O)(=O)CC2)c(N2CCCC(F)(F)C2)c1)C1CC1 [Example 191] show?
Reply: 1260 to 6310 nM

Task item: Sample O=C(Nc1ccc(C(=O)N2CCNCC2c2ccccc2F)c(N2CCCC2)c1)C1CC1 (racemic) [Example 157] — what was its Ki?
Reply: 1260 to 6310 nM

Task item: Could you tell me which Ki is on file for CN1CCN(C(=O)c2ccc(NC(=O)C3CC3)cc2N2CCC3(CCC3)C2)C(c2ccccc2)C1 (single isomer, unassigned) [Example 66b] ?
Reply: 316 to 1000 nM

Further cases:
Task item: I am curious: what Ki value has been reported for CN1CCN(C(=O)c2ccc(NC(=O)C3CC3)cc2N2CCC(F)(F)C2)C(c2ccccc2)C1 (single isomer, unassigned) [Example 202b] ?
Reply: ≤ 50.1 nM

---

Biological target: human GPR39 receptor (Homo sapiens, UniProt O43194)
Construct: PC3 Cells, Expressing the Endogenous Human GPR39 Receptor; endogenous in cells
Sequence (O43194 1-453): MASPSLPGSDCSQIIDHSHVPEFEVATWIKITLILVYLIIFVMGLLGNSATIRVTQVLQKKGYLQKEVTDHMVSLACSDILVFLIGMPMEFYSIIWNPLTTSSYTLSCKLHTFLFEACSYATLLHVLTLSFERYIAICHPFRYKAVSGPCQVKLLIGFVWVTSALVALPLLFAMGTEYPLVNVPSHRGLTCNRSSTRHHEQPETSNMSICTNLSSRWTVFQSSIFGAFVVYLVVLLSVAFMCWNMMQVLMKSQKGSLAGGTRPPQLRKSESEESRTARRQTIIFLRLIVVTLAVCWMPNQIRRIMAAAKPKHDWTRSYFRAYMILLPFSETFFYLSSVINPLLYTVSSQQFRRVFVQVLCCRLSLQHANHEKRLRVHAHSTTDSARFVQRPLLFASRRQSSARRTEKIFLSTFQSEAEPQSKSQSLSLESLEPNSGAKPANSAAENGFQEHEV
Experiment: Measurement of intracellular calcium response in PC3 cells (FLIPR), antagonism of the C3 agonist response
Conditions: functional pKi (modified Cheng-Prusoff), inhibition of the C3 (TC-G 1008) response at EC90, 30 μM ZnCl2, read-out: fpKi activity
Experimental: Human prostate adenocarcinoma (PC3) cells endogenously expressing human GPR39 receptor were seeded into black walls clear-base 384-well plates at a density of 7,500 cells per well in DM EM (Low Glucose) supplemented with 10% heat-inactivated foetal bovine serum and 1% of Pen/Strep and grown overnight at 37° C., 5% CO2. […] Fluorescence was monitored throughout the run assay. […]
MEASURED_PROPERTY: Ki

Some solved entries appear below for comparison.
Task item: Given the entry O=C(Nc1ccc(C(=O)N2CCN(Cc3ccon3)CC2c2ccccc2)c(N2CCCCCC2)c1)C1CC1 (centres unmarked) , what Ki was observed with human GPR39 receptor (Homo sapiens, UniProt O43194)?
Reply: ≤ 50.1 nM

Task item: Notebook: pull reported Ki for human GPR39 receptor (Homo sapiens, UniProt O43194), entry Cc1nnc(-c2ccc(C(=O)N3CCN(C)CC3c3ccccc3)c(N3CCC(C(F)(F)F)C3)c2)[nH]1 (single isomer, unassigned) [Example 177d]
Reply: 316 to 1000 nM

Task item: Which Ki is reported with human GPR39 receptor (Homo sapiens, UniProt O43194) for this entry: CC1CCN(c2cc(NC(=O)C3CC3)ccc2C(=O)N2CCN(C)CC2c2ccccc2)C1 (single isomer, unassigned) [Example 64d] ?
Reply: 316 to 1000 nM

Task item: Test system human GPR39 receptor (Homo sapiens, UniProt O43194); read-out Ki; what value for Cc1ccn(-c2cc(NC(=O)C3CC3)ccc2C(=O)N2CCN(C)CC2c2ccccc2)n1 (racemic) [Example 155c] ?
Reply: 316 to 1000 nM

Task item: I'm curious: which Ki was measured for CC1CC(C)CN(c2cc(NC(=O)C3CC3)ccc2C(=O)N2CCN(C)CC2c2ccccc2)C1 (racemic) [Example 68c] tested on human GPR39 receptor (Homo sapiens, UniProt O43194)?
Reply: ≤ 50.1 nM

Task item: Item: CCCN1CCN(C(=O)c2ccc(NC(=O)C3CC3)cc2N2CCc3ccccc3C2)CC1 Test system: human GPR39 receptor (Homo sapiens, UniProt O43194) Read-out: Ki Value: ?
Reply: 316 to 1000 nM

Task item: Which measured Ki belongs to CC1CN(C(=O)c2ccc(NC(=O)C3CC3)cc2N2CCCCCC2)CCN1C (centres unmarked) , tested on human GPR39 receptor (Homo sapiens, UniProt O43194)?
Reply: 316 to 1000 nM

Task item: Short answer please: Ki, human GPR39 receptor (Homo sapiens, UniProt O43194), entry C[C@@H]1C[C@H](C)CN(c2cc(NC(=O)C3CC3)ccc2-c2nnc(Sc3ccccc3)n2C)C1 [Example 114b]
Reply: 63.1 to 251 nM

Others:
Task item: Write down the reported Ki of CN1CCN(C(=O)c2ccc(NC(=O)C3CC3)cc2N2CCCCCC2)C(c2cccs2)C1 (single isomer, unassigned) [Example 69b] , test system: human GPR39 receptor (Homo sapiens, UniProt O43194).
Reply: ≤ 50.1 nM

Task item: Enter reported Ki observed with human GPR39 receptor (Homo sapiens, UniProt O43194) for CN1CCN(C(=O)c2ccc(NC(=O)C3CC3)cc2N2CCCCCC2)C(c2ccsc2)C1 (single isomer, unassigned) [Example 70a]
Reply: 1260 to 6310 nM

Task item: State its Ki on human GPR39 receptor (Homo sapiens, UniProt O43194): CN1CCN(C(=O)c2ccc(NC(=O)C3CC3)cc2N2CCC(C(F)(F)F)C2)C(c2ccccc2)C1 (single isomer, unassigned) [Example 199d]
Reply: 316 to 1000 nM

Task item: Requested read-out Ki, target or system human GPR39 receptor (Homo sapiens, UniProt O43194), entry O=C(Nc1ccc(C(=O)N2CCN(c3ncnc4ccsc34)CC2)c(N2CCCCCC2)c1)C1CC1
Reply: 1260 to 6310 nM

Task item: Form field: Ki recorded for CN1CCN(C(=O)c2ccc(NC(=O)C3CC3)cc2N2CCC3(CCC3)C2)C(c2cccs2)C1 (racemic) with human GPR39 receptor (Homo sapiens, UniProt O43194) (enter value)
Reply: ≤ 50.1 nM

Task item: Missing value: Ki, human GPR39 receptor (Homo sapiens, UniProt O43194), entry O=C(Nc1ccc(C(=O)N2CCC3(CC2)CC3)c(N2CCCC2)c1)C1CC1 . Fill in?
Reply: 63.1 to 251 nM
